Every entry's value here was drawn from patent US20240287470A1.

# System: HEK293 cells
# Type: cell-based
# experimental_parameters: No modifier; detergent 0.5% w/v, then 0.2% DB; LCD (approximately 12E+6 cells/mL); rAAV3B vector
Listed here are compounds together with their documented Fold improvement over octoxynol-9 and DB control (capsid recovery in clarified lysate).
Write the number in fold without appending the unit.

• CCCCCCCCCCCC(=O)OCCOCCOCCOCCOCCOCCOCCOCCOCCOCCOCCOCCOCCOCCOCCOCCOCCOCCOCCOCCOCC(OCCOCCOCCOCCOCCOCCOCCOCCOCCOCCOCCOCCOCCOCCOCCOCCOCCOCCOCCOCCO)C1OCC(OCCOCCOCCOCCOCCOCCOCCOCCOCCOCCOCCOCCOCCOCCOCCOCCOCCOCCOCCOCCO)C1OCCOCCOCCOCCOCCOCCOCCOCCOCCOCCOCCOCCOCCOCCOCCOCCOCCOCCOCCOCCO (centres unmarked) [PS20, polysorbate 20] = 0.5

Let us move to another entry and its Fold improvement over octoxynol-9 and DB control (capsid recovery in clarified lysate).
Fill in: Fold improvement over octoxynol-9 and DB control (capsid recovery in clarified lysate) of `C[C@H](CCC(=O)NCCC[N+](C)(C)CCCS(=O)(=O)[O-])[C@H]1CC[C@H]2[C@@H]3[C@H](O)C[C@@H]4C[C@H](O)CC[C@]4(C)[C@H]3C[C@H](O)[C@]12C` is ___ 2.1

* * *

Listed here are molecules together with their documented Fold improvement over octoxynol-9 and DB control (capsid recovery in clarified lysate).
# System: HEK293 cells
# Assay type: cell-based
# experimental_parameters: No modifier; detergent 0.5% w/v, then 0.2% DB; LCD (approximately 12E+6 cells/mL); rAAV3B vector
Where a name gives a salt, the structure may show the parent alone.
Write the number in fold without appending the unit.

Solved cases (2 shown):
* CCCCCCCCCCCCOS(=O)(=O)[O-].[Na+] [SDS, sodium dodecyl sulfate] | 0.1
* C[C@H](CCC(=O)O)[C@H]1CC[C@H]2[C@@H]3CC[C@@H]4C[C@H](O)CC[C@]4(C)[C@H]3C[C@H](O)[C@]12C [DOC, deoxycholic acid sodium salt] | 0.1

Fill in: Fold improvement over octoxynol-9 and DB control (capsid recovery in clarified lysate) of CCCCCCCCCCCC(=O)N(C)CC(=O)[O-].[Na+] [sarkosyl] is ___ 0.3

Fill in: Fold improvement over octoxynol-9 and DB control (capsid recovery in clarified lysate) of CCCCCCCCCCCCCCCC[N+](C)(C)C.[Br-] [CTAB, cetyltrimethylammonium bromide] is ___ 1.6
